test system: Clostridium difficile (Isolate ID ATCC 9689); experiment: Bacterial Assay: Determination of Antibacterial Activity (MIC, broth microdilution or agar dilution); format: cell-based; settings: Clostridioides difficile, ATCC9689, 48 h, read-out: C. difficile MIC Activity Range
In this section we review reported MIC values for a set of compounds.

// below: answered compounds
COMPOUND	MEASUREMENT TYPE	TEST VALUE
NC(=O)c1c(F)ccc(N(CCO)CCCCOc2ccc(OC(F)(F)F)cc2)c1F	MIC	1 to 4 µg/mL
NC(=O)c1c(F)ccc(OC(CO)c2nc(-c3ccc(OC(F)(F)F)cc3)c(Br)o2)c1F (centres unmarked)	MIC	< 1.01 µg/mL
Cn1ccc(CNC(=O)OCC(Oc2ccc(F)c(C(N)=O)c2F)c2nc(-c3ccc(C(F)(F)F)cc3)c(Br)o2)n1 (centres unmarked)	MIC	< 1.01 µg/mL

// MIC value for `NC(=O)c1c(F)ccc(OCCCOc2ccc(C(F)(F)F)cc2)c1F` : 1 to 4 µg/mL

Reported MIC for `NC(=O)c1c(F)ccc(OCc2cc(-c3ccc(Cl)cc3)cs2)c1F` was < 1.01 µg/mL

Notebook: CSc1oc(C(CO)Oc2ccc(F)c(C(N)=O)c2F)nc1-c1ccc(C(F)(F)F)cc1 (centres unmarked) , MIC read as < 1.01 µg/mL

// MIC value for `NC(=O)c1c(F)ccc(OCCOCCOc2ccc(S(F)(F)(F)(F)F)cc2)c1F` : < 1.01 µg/mL

response.value for `NC(=O)c1c(F)ccc(OCCCOc2ccc(OC(F)(F)F)cc2)c1F` (field: MIC) = < 1.01 µg/mL

So, Cn1nccc1CNC(=O)OCC(Oc1ccc(F)c(C(N)=O)c1F)c1nc(-c2ccc(C(F)(F)F)cc2)c(Br)o1 (centres unmarked) ? Its MIC was < 1.01 µg/mL

The compound identified as `COc1cc(-c2csc(COc3ccc(F)c(C(N)=O)c3F)n2)ccc1Cl` registered its MIC at 4 to 16 µg/mL

Summary for this compound, `NC(=O)c1c(F)ccc(OCc2nc(-c3ccc(OC(F)(F)F)cc3)c(Br)o2)c1F` : MIC is < 1.01 µg/mL
